Target: hSUCNR1 (Homo sapiens, UniProt Q9BXA5)
Construct: FLAG (own knowledge: pCMV-Tag 2B is an N-terminal FLAG vector); host or cells: HEK-293, transient transfection with Lipofectamine-2000
Sequence (Q9BXA5 whole entry): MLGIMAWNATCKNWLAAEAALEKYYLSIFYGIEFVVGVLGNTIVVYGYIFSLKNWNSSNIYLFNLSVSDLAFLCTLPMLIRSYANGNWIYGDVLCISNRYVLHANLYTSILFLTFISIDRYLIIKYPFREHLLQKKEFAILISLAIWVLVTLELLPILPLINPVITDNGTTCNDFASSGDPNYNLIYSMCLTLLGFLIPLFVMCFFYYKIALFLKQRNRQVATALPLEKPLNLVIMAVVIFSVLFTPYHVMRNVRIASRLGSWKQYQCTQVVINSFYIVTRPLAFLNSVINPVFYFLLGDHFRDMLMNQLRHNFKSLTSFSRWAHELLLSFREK
Experiment: IP3 turnover assay in hSUCNR1 transfected HEK-293 cells
Assay type: cell-based
Details: efficacy relative to succinate (100%); IP3 turnover, HEK cells (N = 3)
Method: Receptor constructs for mSUCNR1 and hSUCNR1 were bought from Origene and cloned into the eukaryotic expression vector pCMV-Tag(2B) (Stratagene). Transient transfection of the HEK-293 cells was done with Lipofectamine-2000 according to manufacturer’s protocol. […] 96-well plates were coated with poly-D-lysine and HEK-293 cells were plated (35.000 cells/well). […] The plate was spun down, and a Packard Top Count NXT counter recorded light emission (scintillation) after an 8 h delay.
assay_endpoint: hSUCNR1 efficacy, % (%)
Give the value, in units of %, as a plain number.

Cc1cccc(-c2ccc(C(=O)N[C@@H](CC(=O)O)C(=O)O)o2)c1 :: 91.9
CC(C)Oc1ccc(-c2ccc(C(=O)N[C@@H](CC(=O)O)C(=O)O)o2)cc1 :: 69.6
O=C(O)C[C@H](NC(=O)c1ccc(Br)o1)C(=O)O :: 78.1
O=C(O)C[C@H](NC(=O)c1ccc(-c2ccc(OC(F)(F)F)cc2)o1)C(=O)O :: 61.7
O=C(O)C[C@H](NC(=O)c1ccc(-c2ccccc2)o1)C(=O)O :: 81.6

Lab note: O=C(O)C[C@H](NC(=O)c1ccc(-c2ccc(O)cc2)o1)C(=O)O gave hSUCNR1 efficacy, % of 71.1

Looking up COc1ccc(-c2cccc(C(=O)N[C@@H](CC(=O)O)C(=O)O)c2)cc1 , I see its hSUCNR1 efficacy, % listed as 58.0

Just so you know, measured hSUCNR1 efficacy, % for COc1ccc(-c2cccc(C(=O)N[C@@H](CC(=O)O)C(=O)O)n2)cc1 came out at 52.6

Reported hSUCNR1 efficacy, % ( CC1(COc2ccc(-c3ccc(C(=O)N[C@@H](CC(=O)O)C(=O)O)o3)cc2)COC1 ) = 76.5
